Origin of the recorded values: PubChem BioAssay AID1885

- experiment-description: inhibitors of intracellular T. cruzi growth, primary screen, luminescence, NIH3T3 host cells (AID 1885);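 further: signal also drops with host cell toxicity which is not excluded here; 0% = plate median of DMSO wells and 100% = zero luminescence signal; higher percent means less beta-gal luminescence so fewer parasites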
- test-parameters: T. cruzi beta-gal in NIH3T3, luminescence, 90 h; concentration not given here
In all, about 300,000 compounds went through this assay and about 4,400 (1.5%) were called active.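 How the source made its calls: active means mean inhibition across valid replicates above about 55% (limit read from the data); inconclusive means mean below that limit but half or more replicates reach it; inactive means mean below it, under half of replicates reach it.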 This is one part of a sample in which actives are shown more often than they occur.
Possible outcomes: active, inactive

smiles_structure=O=C(CSc1ncnc2c1nnn2Cc1ccc(F)cc1)NC1CCCC1 group_label=active
smiles_structure=O=C(COC(=O)c1ccc([N+](=O)[O-])cc1Cl)NC(=O)c1ccccc1 group_label=inactive
smiles_structure=O=C(CSc1ccc(-c2ccc(-n3cccn3)cc2)nn1)Nc1ccc([N+](=O)[O-])cc1 group_label=inactive
smiles_structure=O=C(CSc1ncnc2c1oc1ccccc12)NC1CCCC1 group_label=inactive
smiles_structure=COc1ccc(NS(=O)(=O)c2ccc(N3CCN(CCO)CC3)c([N+](=O)[O-])c2)cc1 group_label=inactive
smiles_structure=COc1ccc(NS(=O)(=O)c2cc(NC(=O)C3CCCCC3)ccc2N2CCOCC2)cc1 group_label=inactive
smiles_structure=COc1ccc(NS(=O)(=O)c2cc(NC(=O)/C=C/c3cc(OC)c(OC)c(OC)c3)ccc2N2CCCCC2)cc1 group_label=active
smiles_structure=N=c1oc2ccccc2cc1C(=O)NCc1ccccc1 group_label=inactive
smiles_structure=COc1cc2ccccc2cc1C(=O)Nc1ccncc1 group_label=inactive
smiles_structure=COc1ccc(-c2cc(C(=O)N(C)CC(=O)Nc3ccccc3Cl)c3ccccc3n2)cc1OC group_label=inactive

* * *

- experiment-description: inhibitors of intracellular T. cruzi growth, primary screen, luminescence, NIH3T3 host cells (AID 1885);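 further: signal also drops with host cell toxicity which is not excluded here; 0% = plate median of DMSO wells and 100% = zero luminescence signal; higher percent means less beta-gal luminescence so fewer parasites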
- test-parameters: T. cruzi beta-gal in NIH3T3, luminescence, 90 h; concentration not given here
Among all 300,000 compounds or so, about 4,400 (1.5%) were called active.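 The calls were made as follows: active = mean inhibition across valid replicates above about 55% (limit read from the data); inconclusive = mean below that limit but half or more replicates reach it; inactive = mean below it, under half of replicates reach it.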 What follows is part of a selection rich in actives, with near analogues and random picks from the rest.
Labels: 1.0 for active, 0.0 for inactive

molecule=Cc1nc([N+](=O)[O-])nn1C12CC3CC(CC(Br)(C3)C1)C2 group_label=1.0
molecule=O=C(NCCN1CCOCC1)c1cc(-c2cccs2)nc2ccccc12 group_label=0.0
molecule="Cc1cccc(C(=O)OC(C)CN2CCCC2)c1 (stereo not drawn)" group_label=0.0
molecule=O=C(CSc1ccccn1)N1CCN(S(=O)(=O)c2ccc(Cl)cc2)CC1 group_label=0.0
molecule=Cc1ccc(-c2cn(S(=O)(=O)c3cccc([N+](=O)[O-])c3)nc2N)cc1 group_label=1.0
molecule=CC(=O)Nc1ccc(Nc2c3ccccc3nc3ccccc23)cc1 group_label=1.0
molecule=CC(=O)Nc1ccc(NC(=O)COc2ncnc3ccccc23)cc1 group_label=0.0
molecule=CCc1ccc(Oc2nc([N+](=O)[O-])nn2C)cc1 group_label=1.0
molecule=O=c1cnnc(Nc2ccccc2F)[nH]1 group_label=0.0
molecule=Cn1nc([N+](=O)[O-])nc1Sc1ccc(C(C)(C)C)cc1 group_label=0.0
molecule=CCc1ccc(C(=O)NNC(=O)C2CCN(c3ncnc4sc(C)c(C)c34)CC2)cc1 group_label=0.0
molecule=COc1ccc(CCNC(=O)COC(=O)/C=C/c2cccs2)cc1OC group_label=0.0
molecule=Cn1c(CCc2ccccc2)nnc1SCC(N)=O group_label=0.0
molecule=Brc1ccc(-c2csc(N/N=C/c3cccnc3)n2)cc1 group_label=1.0
molecule=COc1cccc(NC(=O)c2nn(C34CC5CC(CC(C5)C3)C4)cc2[N+](=O)[O-])c1 group_label=0.0
molecule=Cc1cc(C)n(S(=O)(=O)c2cccc([N+](=O)[O-])c2)n1 group_label=0.0
molecule=CC(=O)Nc1ccc(NC(=O)CSC2=NS(=O)(=O)c3ccccc3N2)cc1 group_label=0.0
molecule=COC(=O)C1=CN(Cc2ccc(OC)c(OC)c2)C=C(C(=O)OC)C1c1cccs1 group_label=1.0
molecule="CSCCC(NC(=O)c1ccco1)C(=O)Nc1cc(C)ccn1 (stereo not drawn)" group_label=0.0
molecule=Cc1ccccc1OCC(=O)NNC(=O)c1ccc(-n2cncn2)c([N+](=O)[O-])c1 group_label=0.0
molecule=CCOC(=O)c1sc(=NC(=O)c2ccc(Br)cc2)n(C)c1C group_label=0.0
molecule=Cc1ncn(C23CC4CC(CC(O)(C4)C2)C3)n1 group_label=0.0
molecule="N#CCN(C(=O)COC(=O)C1CC2CCCC(C1)C2=O)c1ccccc1 (stereo not drawn)" group_label=0.0

* * *

- experiment-description: inhibitors of intracellular T. cruzi growth, primary screen, luminescence, NIH3T3 host cells (AID 1885);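 further: signal also drops with host cell toxicity which is not excluded here; 0% = plate median of DMSO wells and 100% = zero luminescence signal; higher percent means less beta-gal luminescence so fewer parasites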
- test-parameters: T. cruzi beta-gal in NIH3T3, luminescence, 90 h; hits give high values; concentration not given here
The whole screen tested about 300,000 compounds, of which about 4,400 (1.5%) were called active. Shown is part of a subset that was picked to be rich in actives.
The following compounds are listed with their measured inhibition values.
recorded-endpoint: inhibition (%)

compound=O=C(N/N=C/c1cccc([N+](=O)[O-])c1)c1ccncc1 recorded_endpoint=inhibition observed_measurement=-13.8
compound=O=C(COC(=O)c1ncc(Cl)c(Cl)c1Cl)NCc1cccs1 recorded_endpoint=inhibition observed_measurement=-17.6
compound=O=C(Nc1cccc(NC(=O)c2ccco2)c1)c1cnccn1 recorded_endpoint=inhibition observed_measurement=21.9
compound=CN(CC(=O)Nc1ccc(F)cc1)CC(=O)Nc1ccc(Cl)c(S(=O)(=O)N2CCOCC2)c1 recorded_endpoint=inhibition observed_measurement=-1.87
compound="O=C(Nc1ccc(F)c([N+](=O)[O-])c1)C1CC(=O)N(Cc2ccccc2)C1 (stereo unspecified)" recorded_endpoint=inhibition observed_measurement=11.3
compound="CCCOc1ccc(C(=O)C(CCC(CNCC)C(=O)c2ccc(OCCC)cc2)CNCC)cc1 (stereo unspecified)" recorded_endpoint=inhibition observed_measurement=56
compound=CCCOc1ccc(C(=O)NCCc2ccccc2)cc1 recorded_endpoint=inhibition observed_measurement=9.57
compound="CC(C)CC(O)C1CCN(C(=O)CCc2nnc(-c3ccc4c(c3)OCO4)o2)CC1 (stereo unspecified)" recorded_endpoint=inhibition observed_measurement=3.35
compound=COc1ccc(N(CC(=O)N2CCOCC2)S(=O)(=O)c2ccccc2)cc1Cl recorded_endpoint=inhibition observed_measurement=-3.61
compound="CC(C)C(c1nnnn1C1CCCCC1)N1CCN(C(=O)c2ccco2)CC1 (stereo unspecified)" recorded_endpoint=inhibition observed_measurement=-11.6
compound=CN(C)CCCN(C(=O)c1ccc(S(=O)(=O)N2CCCc3ccccc32)cc1)c1nc2ccc(F)cc2s1 recorded_endpoint=inhibition observed_measurement=22.9
compound=CS(=O)(=O)c1ccc2nc(NC(=O)c3ccc(N4CCCC4=O)cc3)sc2c1 recorded_endpoint=inhibition observed_measurement=0.975
compound=Cc1ccc(OCCNC(=O)CCNS(=O)(=O)c2ccc(Br)cc2)cc1 recorded_endpoint=inhibition observed_measurement=-1.12
compound="CC1(C)O[C@H]2CC(=O)OCC23[C@H]2CC[C@@]4(C)[C@H](c5ccoc5)OC(=O)[C@H]5O[C@]54[C@]2(C)C(=O)C[C@@H]13 (stereo partly specified)" recorded_endpoint=inhibition observed_measurement=-3.05
compound=COc1ccc(-c2nc(CS(=O)(=O)CC(=O)NCc3cccc(Br)c3)c(C)o2)cc1 recorded_endpoint=inhibition observed_measurement=-6.3
compound=Cc1c(C)n2c(SCC(=O)NC3CCCC3)nnc2[nH]c1=O recorded_endpoint=inhibition observed_measurement=-14.6
compound=O=C(NCCC1=CCCCC1)c1ccc(Cl)c([N+](=O)[O-])c1 recorded_endpoint=inhibition observed_measurement=-28
compound=O=C(N/N=C/c1cccc(OC(=O)c2ccc([N+](=O)[O-])cc2)c1)c1cccnc1 recorded_endpoint=inhibition observed_measurement=-36.5
compound="O=C(NCc1ccc(Cl)cc1)C(=O)NCC1CCCN1S(=O)(=O)c1cccs1 (stereo unspecified)" recorded_endpoint=inhibition observed_measurement=12.8
compound=O=C(Nc1cc(-c2nc3ncccc3o2)ccc1Cl)c1ccco1 recorded_endpoint=inhibition observed_measurement=-11
compound=CSc1nccc(NC(=O)c2ccc(C(C)(C)C)cc2)n1 recorded_endpoint=inhibition observed_measurement=-6.33

* * *

- experiment-description: inhibitors of intracellular T. cruzi growth, primary screen, luminescence, NIH3T3 host cells (AID 1885);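 further: signal also drops with host cell toxicity which is not excluded here; 0% = plate median of DMSO wells and 100% = zero luminescence signal; higher percent means less beta-gal luminescence so fewer parasites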
- test-parameters: T. cruzi beta-gal in NIH3T3, luminescence, 90 h; hits give high values; concentration not given here
In all, about 300,000 compounds went through this assay and about 4,400 (1.5%) were called active. The sample holds actives, similar compounds and a random draw of the others, so the mix is not that of the screen.
Measured inhibition, listed per entry.
recorded-endpoint: inhibition (%)

smiles_structure=O=C(Nc1ccc(Sc2ccc(Br)cc2)cc1)c1ccco1 observed_measurement=-17.4
smiles_structure=O=C(C1=C[C@H](c2ccc(C(F)(F)F)cc2)C[C@H](OCc2ccc(CO)cc2)O1)N1CCN(Cc2ccccc2)CC1 observed_measurement=40.5
smiles_structure=O=C(Nc1ccccc1Cl)Nc1cccc2cccnc12 observed_measurement=3.14
smiles_structure=CC(C)(C)S(=O)(=O)c1ccccc1-c1noc(-c2ccccc2)c1C(N)=O observed_measurement=-8.06
smiles_structure=Cc1cc(NC(=O)c2ccc(F)cc2)ccc1NC(=O)c1ccco1 observed_measurement=14
smiles_structure=O=C(CN1CCN(S(=O)(=O)c2ccc(Br)cc2)CC1)Nc1ccccc1C(=O)c1ccccc1 observed_measurement=56
smiles_structure=CCn1c2c(c3ccc(OC)cc31)CCCC2=O observed_measurement=-5.03
smiles_structure=COc1cc(/C=C2/SC(=S)N(Cc3ccccc3)C2=O)cc(OC)c1O observed_measurement=-5.6
smiles_structure=O=C(NN1CCOCC1)c1cccc(F)c1 observed_measurement=-3.38
smiles_structure=CC(C)Oc1c(Br)cc(Br)cc1/C=N/NC(N)=S observed_measurement=66.9
smiles_structure=O=C(Nc1cccc2cccnc12)c1cccc(Cl)c1 observed_measurement=-33.4
smiles_structure=Cc1ccc(-c2nn(-c3ccccc3)cc2C(=O)NCCCN2CCCC2=O)cc1 observed_measurement=-2.8
